So I've got a bunch of molecules here, and I need their HEI-OC1 LD50 values.
Test system: HEI-OC1 cells
testConditions: mouse, 22 h

The following molecules have reported results that may help.
- molecule: "CC(C)COC(=O)c1ccc2[nH]c(O)c(/C=N/c3ccc(S(N)(=O)=O)cc3)c2c1"
  result: ">40 µM"
- molecule: "Cc1oncc1C(=O)Nc1ccc(C(F)(F)F)cc1 [Compound 1, Leflunomide]"
  result: ">40 µM"
- molecule: "CN[C@H](C#Cc1c(F)ccc2c1/C(=C/c1[nH]ccc1OC)C(=O)N2)CO"
  result: ">10 µM"
- molecule: "CN(C)CCOc1ccc(-c2cc(-c3ccc4c(c3)CC/C4=N\\O)c(-c3ccncc3)o2)cc1"
  result: ">10 µM"
- molecule: "CCOc1cc2ncc(C#N)c(Nc3ccc(F)c(Cl)c3)c2cc1NC(=O)/C=C/CN(C)C"
  result: ">40 µM"
- molecule: "COc1cccc(-c2c[nH]c3c(N/N=C/c4ccncc4)ncnc23)c1"
  result: ">40 µM"

# per-item lookup of HEI-OC1 LD50; items listed below
1. CC[C@H](CO)Nc1nc(NCc2ccccc2O)c2ncn(C(C)C)c2n1
2. O=c1cc(CN2CCOCC2)occ1OCCCCCSc1ccnc2cc(C(F)(F)F)ccc12
3. O=C(Nc1n[nH]c2nc(-c3ccc(O)cc3)c(Br)cc12)C1CC1
4. OC[C@H]1OC(c2nc3ccccc3[nH]2)[C@H](O)[C@@H]1O (stereo partly shown)

[">40 µM", ">20 µM", ">40 µM", ">40 µM"]

###

System: hair cells in mouse cochlear explants
testConditions: mouse, 24 h
recordedMetric: Mouse Explant LD50

Kindly give each listed record's Mouse Explant LD50.
1. O=c1cc(CN2CCOCC2)occ1OCCCCCSc1ccnc2cc(C(F)(F)F)ccc12 [Compound 7, EHT1864]
2. CCOc1cc2ncc(C#N)c(Nc3ccc(F)c(Cl)c3)c2cc1NC(=O)/C=C/CN(C)C [Compound 3, Pelitinib]
3. CC[C@H](CO)Nc1nc(NCc2ccccc2O)c2ncn(C(C)C)c2n1 [Compound 9, Olomoucine II]
4. Cc1oncc1C(=O)Nc1ccc(C(F)(F)F)cc1 [Compound 1, Leflunomide]

1: <20 µM; 2: <13 µM; 3: >33 µM; 4: >50 µM

###

Tested on: outer hair cells (OHCs) in mouse cochlear explants
assayInfo: Protection against cisplatin-induced hair cell loss in neonatal (P3) mouse cochlear explants
Format: cell-based
testConditions: level of protection to which the stated explant IC50 refers
recordedMetric: OHCs protected against cisplatin (For x%)

- compound: "O=C([O-])c1cc(/N=N/c2ccc(O)c(C(=O)[O-])c2)ccc1O.[Na+].[Na+] [Compound 2, Olsalazine sodium]"
  measuredTarget: "outer hair cells (OHCs) in mouse cochlear explants"
  result: "(For 50%)"
- compound: "CCOc1cc2ncc(C#N)c(Nc3ccc(F)c(Cl)c3)c2cc1NC(=O)/C=C/CN(C)C [Compound 3, Pelitinib]"
  measuredTarget: "outer hair cells (OHCs) in mouse cochlear explants"
  result: "(For 50%)"

###

For each entry below, report its Zebrafish LD50 value.
Test system: hair cells in zebrafish lateral line neuromasts
testConditions: 5-dpf larvae

- molecule: "CC[C@H](CO)Nc1nc(NCc2ccccc2O)c2ncn(C(C)C)c2n1"
  result: ">50 µM"
- molecule: "CCOc1cc2ncc(C#N)c(Nc3ccc(F)c(Cl)c3)c2cc1NC(=O)/C=C/CN(C)C"
  result: "<27 µM"
- molecule: "OC[C@H]1OC(c2nc3ccccc3[nH]2)[C@H](O)[C@@H]1O (stereo partly shown)"
  result: ">75 µM"
- molecule: "O=C([O-])c1cc(/N=N/c2ccc(O)c(C(=O)[O-])c2)ccc1O.[Na+].[Na+] [Compound 2, Olsalazine sodium]"
  result: ">30 µM"
- molecule: "Cc1oncc1C(=O)Nc1ccc(C(F)(F)F)cc1 [Compound 1, Leflunomide]"
  result: ">5.0 µM"

List Zebrafish LD50 for every entry below, keeping the order given.
1. O=c1cc(CN2CCOCC2)occ1OCCCCCSc1ccnc2cc(C(F)(F)F)ccc12
2. CCCCCC[C@H]1C(=O)OC(C)C(NC(=O)c2cccc(NC=O)c2O)C(=O)O[C@@H](C)C1OC(=O)CC(C)C (stereo partly shown) [Compound 5, Antimycin A]

["<1.0 µM", "<0.6 µM"]

Data origin: patent US11446308B2
